Assay details: Microsomal stability assay
Type: in vitro ADME
Recorded conditions: 60 min; 5 μM compound, 1 mg/mL liver microsome protein, 37° C.; species not given
Consider the following compounds; for each one, report its Microsomal Stability (% remaining after 60 min.).
Entry format: amount then unit.

For Cc1cc(Nc2cc(N3CCC3)nc(Sc3ccc(NC(=O)c4ccccc4F)cc3)n2)[nH]n1 , what is its reported Microsomal Stability (% remaining after 60 min.)? 66%

Next compound up: Cc1cc(Nc2cc(N3CCC3)nc(Sc3ccc(NC(=O)c4ccccc4C(F)F)cc3)n2)[nH]n1 91%

Subsequent entry: CCc1cccc(C(=O)Nc2ccc(Sc3nc(Nc4cc(C)[nH]n4)cc(N4CCC4)n3)cc2)c1Cl 46%

###

Assay details: Microsomal stability assay
Format: in vitro ADME
Recorded conditions: 30 min; 5 μM compound, 1 mg/mL liver microsome protein, 37° C.; species not given
Readout kind: Microsomal Stability (% remaining after 30 min.)
State the value with its unit after it.

Suppose we examine the molecule Cc1cc(Nc2cc(N3CCC3)nc(Sc3ccc(NC(=O)c4ccccc4C(F)(F)F)cc3)n2)[nH]n1 [Compound I-14] ; what Microsomal Stability (% remaining after 30 min.) value has been reported? 103%

Same question for Cc1cccc(C(=O)Nc2ccc(Sc3nc(Nc4cc(C)[nH]n4)cc(N4CCC4)n3)cc2)c1 [Compound I-4] please. 76%

Next entry: Cc1cc(Nc2cc(N3CCC3)nc(Sc3ccc(NC(=O)c4cccc(C(F)(F)F)c4F)cc3)n2)n[nH]1 [Compound I-13] 85%

Another: Cc1cc(Nc2cc(N3CCC3)nc(Sc3ccc(NC(=O)c4cccc(F)c4F)cc3)n2)[nH]n1 [Compound I-7] 102%

Now give it for Cc1cc(Nc2cc(N3CCC3)nc(Sc3ccc(NC(=O)c4cccc(Cl)c4F)cc3)n2)n[nH]1 [Compound I-15] too. 73%

Similarly, CCc1cc(Nc2cc(N3CCC3)nc(Sc3ccc(NC(=O)c4ccccc4Cl)cc3)n2)n[nH]1 [Compound I-16] ? 91%

Consider next the molecule Cc1cc(Nc2cc(N3CCC3)nc(Sc3ccc(NC(=O)c4ccccc4Cl)cc3)n2)[nH]n1 [Compound I-1] in the same way. 96%

Cool, now Cc1cc(Nc2cc(N3CCC3)nc(Sc3ccc(NC(=O)c4ccccc4C(F)F)cc3)n2)[nH]n1 [Compound I-19] 109%

And the next one, Cc1cc(Nc2cc(N3CCC3)nc(Sc3ccc(NC(=O)c4c(F)cccc4F)cc3)n2)[nH]n1 [Compound I-2] ? 107%

How about Cc1cc(Nc2cc(N3CCC3)nc(Sc3ccc(NC(=O)c4ccccc4F)cc3)n2)[nH]n1 [Compound I-3] ? 51%

Same lookup for Cc1cc(Nc2cc(N3CCC3)nc(Sc3ccc(NC(=O)c4cc(Cl)ccc4Cl)cc3)n2)n[nH]1 [Compound I-21] , please. 86%

Likewise for COc1ccccc1C(=O)Nc1ccc(Sc2nc(Nc3cc(C)[nH]n3)cc(N3CCC3)n2)cc1 [Compound I-6] ? 80%

Next record, please: CCc1cccc(C(=O)Nc2ccc(Sc3nc(Nc4cc(C)[nH]n4)cc(N4CCC4)n3)cc2)c1Cl [Compound I-22] 1%

Same for Cc1cc(Nc2cc(N3CCC3)nc(Sc3ccc(NC(=O)c4ccccc4OC(F)(F)F)cc3)n2)[nH]n1 [Compound I-8] 100%

Next record, please: Cc1cc(Nc2cc(N3CCC3)nc(Sc3ccc(NC(=O)c4cccc(C)c4Cl)cc3)n2)n[nH]1 [Compound I-20] 53%

###

Field: Ki. Provide a value for each of the compounds that follow.
Experimental target: N-terminally truncated Abl kinase
Sequence (P00519 28-1130): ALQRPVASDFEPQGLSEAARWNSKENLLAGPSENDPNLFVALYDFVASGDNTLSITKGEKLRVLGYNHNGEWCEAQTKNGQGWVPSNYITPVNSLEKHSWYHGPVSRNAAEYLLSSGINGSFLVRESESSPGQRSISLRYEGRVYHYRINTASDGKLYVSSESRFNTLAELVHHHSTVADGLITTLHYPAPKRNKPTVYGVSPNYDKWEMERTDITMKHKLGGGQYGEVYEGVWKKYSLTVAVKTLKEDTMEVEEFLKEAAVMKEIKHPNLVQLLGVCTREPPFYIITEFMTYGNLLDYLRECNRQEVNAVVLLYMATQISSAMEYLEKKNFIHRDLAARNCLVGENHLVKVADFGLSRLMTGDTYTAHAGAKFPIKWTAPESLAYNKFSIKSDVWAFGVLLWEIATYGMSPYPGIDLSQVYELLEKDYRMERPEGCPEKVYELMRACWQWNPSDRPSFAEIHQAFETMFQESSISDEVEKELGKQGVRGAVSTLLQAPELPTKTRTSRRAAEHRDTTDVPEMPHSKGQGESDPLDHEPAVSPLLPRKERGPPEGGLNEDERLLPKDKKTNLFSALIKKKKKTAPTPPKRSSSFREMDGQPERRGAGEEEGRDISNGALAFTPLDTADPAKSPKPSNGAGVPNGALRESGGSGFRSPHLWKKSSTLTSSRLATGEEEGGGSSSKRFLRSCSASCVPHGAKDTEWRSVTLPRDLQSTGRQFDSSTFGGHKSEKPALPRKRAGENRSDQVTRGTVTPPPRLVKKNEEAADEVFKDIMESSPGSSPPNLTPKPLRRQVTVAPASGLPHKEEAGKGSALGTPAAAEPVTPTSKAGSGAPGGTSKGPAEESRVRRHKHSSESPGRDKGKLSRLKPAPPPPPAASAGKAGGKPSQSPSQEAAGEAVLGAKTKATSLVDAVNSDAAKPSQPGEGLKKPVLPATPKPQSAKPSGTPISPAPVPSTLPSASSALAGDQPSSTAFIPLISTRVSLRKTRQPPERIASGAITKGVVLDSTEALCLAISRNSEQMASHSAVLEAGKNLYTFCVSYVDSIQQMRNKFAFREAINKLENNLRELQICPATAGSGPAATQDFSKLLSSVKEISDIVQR
Assay details: Abl kinase activity inhibition assay, coupled enzyme
Recorded conditions: read-out: Abl (wild) Ki; 110 μM ATP, 30° C., 21 nM Abl kinase
State just the number; it will be interpreted in nM.

Hello, I am looking for reported Ki with N-terminally truncated Abl kinase for Cc1cc(Nc2cc(N3CCC3)nc(Sc3ccc(NC(=O)c4ccccc4Cl)cc3)n2)[nH]n1 . Could you help? 36

Note, next up: Cc1cc(Nc2cc(N3CCC3)nc(Sc3ccc(NC(=O)c4c(Cl)cccc4Cl)cc3)n2)n[nH]1 21

Continue with Cc1cc(Nc2cc(N3CCC3)nc(Sc3ccc(NC(=O)c4ccccc4C(F)(F)F)cc3)n2)[nH]n1 36

Next entry: Cc1cc(Nc2cc(N3CCC3)nc(Sc3ccc(NC(=O)c4cccc(Cl)c4F)cc3)n2)n[nH]1 31

Could you do the same for Cc1cc(Nc2cc(N3CCC3)nc(Sc3ccc(NC(=O)c4c(F)cccc4F)cc3)n2)[nH]n1 , please? 7

Okay, and Cc1cc(Nc2cc(N3CCC3)nc(Sc3ccc(NC(=O)c4cccc(F)c4F)cc3)n2)[nH]n1 ? 35

Try Cc1cc(Nc2cc(N3CCC3)nc(Sc3ccc(NC(=O)c4ccccc4C)cc3)n2)[nH]n1 next. 68

###

Assignment: determine reported pKi for the given compounds.
Experimental target: Aurora-2 (Aurora A) (Homo sapiens)
Sequence (O14965 whole entry): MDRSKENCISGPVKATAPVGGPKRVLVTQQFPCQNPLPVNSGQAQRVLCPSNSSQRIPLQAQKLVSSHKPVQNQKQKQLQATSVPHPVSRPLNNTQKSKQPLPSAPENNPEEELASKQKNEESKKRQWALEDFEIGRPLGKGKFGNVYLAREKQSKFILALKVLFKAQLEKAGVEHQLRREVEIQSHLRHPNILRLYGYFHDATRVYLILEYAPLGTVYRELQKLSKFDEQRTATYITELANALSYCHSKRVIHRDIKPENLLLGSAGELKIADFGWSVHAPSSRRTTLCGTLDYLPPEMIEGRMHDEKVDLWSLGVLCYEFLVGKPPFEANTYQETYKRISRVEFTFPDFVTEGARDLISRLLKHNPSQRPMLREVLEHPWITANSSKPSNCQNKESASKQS
Assay details: Aurora-2 (Aurora A) inhibition assay, coupled enzyme
Assay type: biochemical
Recorded conditions: 400 μM ATP, 570 μM Kemptide, 30° C., 40 nM Aurora-2; read-out: Aurora A Ki
# reply with the number alone; pKi is -log10 of concentration in mol/L

Form field: pKi recorded for Cc1cc(Nc2cc(N3CCC3)nc(Sc3ccc(NC(=O)c4cc(Cl)ccc4Cl)cc3)n2)n[nH]1 with Aurora-2 (Aurora A) (Homo sapiens) (enter value) 9.11

Request: Cc1cc(Nc2cc(N3CCC3)nc(Sc3ccc(NC(=O)c4ccccc4C(F)(F)F)cc3)n2)[nH]n1 9.42

Field entry: Cc1cc(Nc2cc(N3CCC3)nc(Sc3ccc(NC(=O)c4ccccc4Cl)nc3)n2)[nH]n1 9.00

What about Cc1cc(Nc2cc(N3CCC3)nc(Sc3ccc(NC(=O)c4ccccc4Cl)cc3)n2)[nH]n1 ? 9.00

Now this one: Cc1cc(Nc2cc(N3CCC3)nc(Sc3ccc(NC(=O)c4ccccc4C(F)F)cc3)n2)[nH]n1 8.92

Another: Cc1cc(Nc2cc(N3CCC3)nc(Sc3ccc(NC(=O)c4cc(F)ccc4F)cc3)n2)[nH]n1 8.74

Try Cc1cc(Nc2cc(N3CCC3)nc(Sc3ccc(NC(=O)c4c(F)cccc4F)cc3)n2)[nH]n1 next. 8.72

###

Experimental target: Arg (Abl-2) (Homo sapiens, UniProt P42684)
Sequence (P42684 whole entry, species assumed): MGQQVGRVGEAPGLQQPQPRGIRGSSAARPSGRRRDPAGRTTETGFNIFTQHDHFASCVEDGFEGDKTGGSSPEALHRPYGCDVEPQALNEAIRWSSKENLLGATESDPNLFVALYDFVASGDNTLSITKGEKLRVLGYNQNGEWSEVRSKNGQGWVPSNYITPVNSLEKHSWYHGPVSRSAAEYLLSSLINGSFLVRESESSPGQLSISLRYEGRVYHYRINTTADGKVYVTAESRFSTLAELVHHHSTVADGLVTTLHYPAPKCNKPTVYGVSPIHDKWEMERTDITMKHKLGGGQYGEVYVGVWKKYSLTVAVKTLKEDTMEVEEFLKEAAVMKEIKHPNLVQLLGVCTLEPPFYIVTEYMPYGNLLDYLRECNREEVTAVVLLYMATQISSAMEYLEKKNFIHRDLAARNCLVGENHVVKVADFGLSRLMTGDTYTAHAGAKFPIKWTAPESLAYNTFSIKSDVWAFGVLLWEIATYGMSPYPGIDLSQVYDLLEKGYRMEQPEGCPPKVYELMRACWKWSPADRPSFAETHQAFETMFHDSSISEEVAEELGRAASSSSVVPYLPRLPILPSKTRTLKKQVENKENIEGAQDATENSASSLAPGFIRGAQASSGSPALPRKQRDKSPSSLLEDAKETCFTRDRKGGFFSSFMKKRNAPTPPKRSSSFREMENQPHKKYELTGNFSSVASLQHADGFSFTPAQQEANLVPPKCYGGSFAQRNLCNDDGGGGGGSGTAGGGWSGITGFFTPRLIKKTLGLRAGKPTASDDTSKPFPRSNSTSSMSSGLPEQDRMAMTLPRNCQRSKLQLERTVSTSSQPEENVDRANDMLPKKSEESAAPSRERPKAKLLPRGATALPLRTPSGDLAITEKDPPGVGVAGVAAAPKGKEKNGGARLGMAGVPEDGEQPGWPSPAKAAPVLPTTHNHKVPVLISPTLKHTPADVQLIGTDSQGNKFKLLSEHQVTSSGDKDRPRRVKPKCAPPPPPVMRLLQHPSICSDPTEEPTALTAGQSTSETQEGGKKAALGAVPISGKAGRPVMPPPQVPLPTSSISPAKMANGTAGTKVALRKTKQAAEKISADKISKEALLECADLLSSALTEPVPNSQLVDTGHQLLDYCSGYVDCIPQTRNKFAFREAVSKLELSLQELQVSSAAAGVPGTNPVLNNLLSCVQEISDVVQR
Readout kind: pKi
Quick note: pKi values are minus log10 of concentrations in mol/L.

Requested read-out: pKi. Entry: Cc1cc(Nc2cc(N3CCC3)nc(Sc3ccc(NC(=O)c4ccccc4Cl)cc3)n2)[nH]n1 7.92

###

Assign pKi to each entry below.
Experimental target: Aurora-1 (Aurora B) (Homo sapiens)
Sequence (Q96GD4 whole entry): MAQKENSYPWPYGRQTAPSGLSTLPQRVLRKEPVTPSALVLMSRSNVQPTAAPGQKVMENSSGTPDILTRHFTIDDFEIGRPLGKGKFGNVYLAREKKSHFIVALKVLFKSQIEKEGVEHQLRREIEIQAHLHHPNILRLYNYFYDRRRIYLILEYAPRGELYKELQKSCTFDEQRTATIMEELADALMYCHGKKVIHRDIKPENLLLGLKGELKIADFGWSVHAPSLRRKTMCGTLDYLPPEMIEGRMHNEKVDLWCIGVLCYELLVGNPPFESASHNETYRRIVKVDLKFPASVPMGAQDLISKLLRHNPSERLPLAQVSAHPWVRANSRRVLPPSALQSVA
Assay details: Aurora-1 (Aurora B) inhibition assay (radiometric)
Type: biochemical
Recorded conditions: 800 μM ATP, Kemptide, 25° C.; read-out: Aurora B Ki
# pKi: negative log10 of molar concentration; output just the value

Field: pKi (Aurora-1 (Aurora B) (Homo sapiens)). Entry: Cc1cc(Nc2cc(N3CCC3)nc(Sc3ccc(NC(=O)c4ccccc4Cl)cc3)n2)[nH]n1 [Compound I-1] 8.15

Entry to check: COc1cccc(C(=O)Nc2ccc(Sc3nc(Nc4cc(C)n[nH]4)cc(N4CCC4)n3)cc2)c1 [Compound I-18] 8.10

Field entry: Cc1cc(Nc2cc(N3CCC3)nc(Sc3ccc(NC(=O)c4ccccc4C)cc3)n2)[nH]n1 [Compound I-5] 7.85

Please answer likewise for Cc1cc(Nc2cc(N3CCC3)nc(Sc3ccc(NC(=O)c4cccc(C)c4Cl)cc3)n2)n[nH]1 [Compound I-20] 8.22

Now consider Cc1cc(Nc2cc(N3CCC3)nc(Sc3ccc(NC(=O)c4cc(Cl)ccc4Cl)cc3)n2)n[nH]1 [Compound I-21] . 8.19
